IC50 reference
- System: MOLM-13 cells
- assay details: MOLM-13 cell proliferation experiment
- Assay type: cell-based
- cond: Homo sapiens, MOLM-13, read-out: MOLM-13 cell proliferation IC50
observation type: IC50 (nM)

• Nc1cc(Sc2cnc(N3CCC4(CCC[C@H]4N)CC3)n3ccnc23)c(Cl)cn1 = 43
• N[C@@H]1CCCC12CCN(c1ncc(Sc3ccnc(Cl)c3Cl)c3nccn13)CC2 = 42
• C[C@@H]1OCC2(CCN(c3ncc(Sc4cc(N)ncc4Cl)c4nccn34)CC2)[C@@H]1N = 180
• CC1C[C@@H](N)C2(CCN(c3ncc(Sc4ccnc(N)c4Cl)c4nccn34)CC2)C1 (stereo partly shown) = 54
• CC1C[C@@H](N)C2(CCN(c3ncc(Sc4cccc(Cl)c4Cl)c4nccn34)CC2)C1 (stereo partly shown) = 140
• C[C@@H]1OCC2(CCN(c3ncc(Sc4ccnc(N)c4Cl)c4nccn34)CC2)[C@@H]1N = 76
• C[C@@H]1OCC2(CCN(c3ncc(Sc4cc(N)nc(Cl)c4Cl)c4nccn34)CC2)[C@@H]1N = 50
• C[C@@H]1OCC2(CCN(c3ncc(Sc4ccnc(Cl)c4Cl)c4nncn34)CC2)[C@@H]1N = 133
• Nc1cccc(Sc2cnc(N3CCC4(CCC[C@H]4N)CC3)n3cnnc23)c1Cl = 389
• C[C@@H]1OCC2(CCN(c3ncc(Sc4ccnc(Cl)c4Cl)c4nccn34)CC2)[C@@H]1N = 38
• N[C@@H]1COCC12CCN(c1ncc(Sc3cccc(Cl)c3Cl)c3nncn13)CC2 = 892
• Cc1nc(N)cc(Sc2cnc(N3CCC4(CC3)CO[C@@H](C)[C@H]4N)n3ccnc23)c1Cl = 42
• Nc1nccc(Sc2cnc(N3CCC4(CCC[C@H]4N)CC3)n3ccnc23)c1Cl = 270
• Cc1nc(N)cc(Sc2cnc(N3CCC4(CC3)COC[C@H]4N)n3ccnc23)c1Cl = 340
• Nc1cc(Sc2cnc(N3CCC4(CCC[C@H]4N)CC3)n3cnnc23)c(Cl)c(Cl)n1 = 303
• Cc1nc(N)cc(Sc2cnc(N3CCC4(CC3)CC(F)(F)C[C@H]4N)n3ccnc23)c1Cl = 150
• Cc1nccc(Sc2cnc(N3CCC4(CCC[C@H]4N)CC3)n3ccnc23)c1Cl = 58
• Cc1nccc(Sc2cnc(N3CCC4(CCC[C@H]4N)CC3)n3cnnc23)c1Cl = 232
• N[C@@H]1CC(O)CC12CCN(c1ncc(Sc3cccc(Cl)c3Cl)c3nccn13)CC2 (stereo partly shown) = 42
• Nc1cc(Sc2cnc(N3CCC4(CC3)CC(F)(F)C[C@H]4N)n3ccnc23)c(Cl)c(Cl)n1 = 150
• N[C@@H]1CCCC12CCN(c1ncc(Sc3ccncc3Cl)c3nncn13)CC2 = 324
• N[C@@H]1CCCC12CCN(c1ncc(Sc3cccc4ccccc34)c3nccn13)CC2 = 150
• N[C@@H]1CCCC12CCN(c1ncc(Sc3ccccc3Cl)c3nncn13)CC2 = 485
• CC1C[C@@H](N)C2(CCN(c3ncc(Sc4cc(N)nc(Cl)c4Cl)c4nncn34)CC2)C1 (stereo partly shown) = 17
• CC1C[C@@H](N)C2(CCN(c3ncc(Sc4ccnc(Cl)c4Cl)c4nccn34)CC2)C1 (stereo partly shown) = 28
• N[C@@H]1CCCC12CCN(c1ncc(Sc3ccnc4ccccc34)c3nccn13)CC2 = 99
• C[C@@H]1OCC2(CCN(c3ncc(Sc4cccc(Cl)c4Cl)c4nccn34)CC2)[C@@H]1N = 68
• CC1C[C@@H](N)C2(CCN(c3ncc(Sc4cccc(Cl)c4Cl)c4nncn34)CC2)C1 (stereo partly shown) = 59

----------
- Test system: phosphorylation level of intracellular protein kinase (ERK) in MOLM13 cells
- assay details: Phosphorylated protein kinase (p-ERK) cell experiment (AlphaLISA)
- Format: cell-based
- cond: Homo sapiens, MOLM-13; p-ERK, MOLM13 cells, 2 hours of cell treatment, Tables 2.1 and 2.2; read-out: IC50
pIC50: −log10 of the molar value.
observation type: pIC50

• CC1CCC2(CCN(c3ncc(Sc4cccc(Cl)c4Cl)c4nccn34)CC2)[C@@H]1N (stereo partly drawn) = 6.00 to 7.00
• N[C@@H]1CCCC12CCN(c1ncc(Sc3ccncc3C(F)(F)F)c3nccn13)CC2 = 6.00 to 7.00
• Cc1nccc(Sc2cnc(N3CCC4(CCC[C@H]4N)CC3)n3ccnc23)c1Cl = 6.00 to 7.00

----------
- System: MOLM-13 cells
- assay details: MOLM-13 cell proliferation experiment
- Type: cell-based
- cond: Homo sapiens, MOLM-13, 72 h, MOLM-13 cell proliferation, 3 days, Tables 3.1 and 3.2; read-out: IC50
observation type: IC50

• Nc1cc(Sc2cnc(N3CCC4(CCC[C@H]4N)CC3)n3ccnc23)c(Cl)c(Cl)n1 = < 100 nM
• Nc1cc(Sc2cnc(N3CCC4(CCC[C@H]4N)CC3)n3ccnc23)c(Cl)cn1 = < 100 nM
• Cc1nccc(Sc2cnc(N3CCC4(CC3)CO[C@@H](C)[C@H]4N)n3ncnc23)c1Cl = 1000 to 10000 nM
• CC1C[C@@H](N)C2(CCN(c3ncc(Sc4cc(N)nc(Cl)c4Cl)c4nccn34)CC2)C1 (stereo partly drawn) = < 100 nM
• N[C@@H]1CCCC12CCN(c1ncc(Sc3ccncc3Cl)c3nccn13)CC2 = 100 to 1000 nM
• N[C@@H]1CCCC12CCN(c1ncc(Sc3cccc(NC(=O)c4c(O)nc5n(c4=O)CCCC5)c3Cl)c3nccn13)CC2 = 100 to 1000 nM
• C[C@@H]1OCC2(CCN(c3ncc(Sc4cc(N)ncc4Cl)c4nncn34)CC2)[C@@H]1N = 1000 to 10000 nM
• N[C@@H]1CCCC12CCN(c1ncc(Sc3ccncc3Cl)c3nncn13)CC2 = 100 to 1000 nM
• CC1C[C@@H](N)C2(CCN(c3ncc(Sc4ccnc(N)c4Cl)c4nncn34)CC2)C1 (stereo partly drawn) = 100 to 1000 nM

----------
- study system: SHP2^E76A protein (Homo sapiens (Human), UniProt Q06124, E76A)
- Sequence (Q06124 whole entry E76A): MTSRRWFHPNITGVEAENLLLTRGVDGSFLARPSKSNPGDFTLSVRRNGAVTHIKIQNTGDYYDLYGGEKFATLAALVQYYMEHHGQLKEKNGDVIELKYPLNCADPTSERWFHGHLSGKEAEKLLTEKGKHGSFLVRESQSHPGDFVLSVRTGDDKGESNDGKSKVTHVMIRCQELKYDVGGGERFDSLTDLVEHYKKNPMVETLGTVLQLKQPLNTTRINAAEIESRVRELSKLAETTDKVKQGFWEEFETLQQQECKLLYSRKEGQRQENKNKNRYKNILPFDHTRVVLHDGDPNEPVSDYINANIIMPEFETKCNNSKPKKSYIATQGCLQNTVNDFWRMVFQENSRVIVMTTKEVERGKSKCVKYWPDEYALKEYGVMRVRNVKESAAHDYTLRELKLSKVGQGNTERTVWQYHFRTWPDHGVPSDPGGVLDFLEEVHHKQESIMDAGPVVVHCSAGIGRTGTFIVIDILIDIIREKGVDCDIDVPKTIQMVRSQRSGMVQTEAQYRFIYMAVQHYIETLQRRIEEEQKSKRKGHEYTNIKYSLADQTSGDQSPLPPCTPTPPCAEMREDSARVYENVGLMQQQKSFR
- assay details: SHP2 enzyme activity inhibition experiment
- Format: biochemical
- cond: SHP2 enzyme activity, Tables 1.1 and 1.2; read-out: IC50
observation type: IC50

- COC(=O)c1ccccc1Sc1cnc(N2CCC3(CCC[C@H]3N)CC2)n2ccnc12: 100 to 1000 nM
- C[C@H]1OCC2(CCN(c3ncc(Sc4cccc(Cl)c4Cl)c4ncnn34)CC2)[C@H]1N: 1000 to 10000 nM
- C=CC(=O)Nc1cccc(Sc2cnc(N3CCC4(CCC[C@H]4N)CC3)n3cnnc23)c1Cl: 100 to 1000 nM
- Nc1cccc(Sc2cnc(N3CCC4(CCC[C@H]4N)CC3)n3cnnc23)c1Cl: < 100 nM
- NCCC1CCN(c2ncc(Sc3cccc(Cl)c3Cl)c3nncn23)CC1: 1000 to 10000 nM
- Cc1ncccc1Sc1cnc(N2CCC3(CCC[C@H]3N)CC2)n2ncnc12: 1000 to 10000 nM
- N[C@@H]1CC(F)(F)CC12CCN(c1ncc(Sc3cccc(Cl)c3Cl)c3nccn13)CC2: < 100 nM
- Cc1nccc(Sc2cnc(N3CCC4(CC3)CO[C@@H](C)[C@H]4N)n3cnnc23)c1Cl: < 100 nM
- Clc1cccc(Sc2cnc(N3CCC4(CCCN4)CC3)n3cnnc23)c1Cl: 1000 to 10000 nM
- Cc1ncccc1Sc1cnc(N2CCC3(CCC[C@H]3N)CC2)n2ccnc12: < 100 nM

----------
- Test system: MOLM-13 cells
- assay details: MOLM-13 cell proliferation experiment
- Assay type: cell-based
- cond: Homo sapiens, MOLM-13, 72 h, MOLM-13 cell proliferation, 3 days, Tables 3.1 and 3.2; read-out: IC50
pIC50: −log10 of the molar value.
observation type: pIC50

• N[C@@H]1CCCC12CCN(c1ncc(Sc3ccccc3)c3nccn13)CC2 = 6.00 to 7.00
• Cc1nccc(Sc2cnc(N3CCC4(CCC[C@H]4N)CC3)n3cnnc23)c1Cl = 6.00 to 7.00
• N[C@@H]1CCCC12CCN(c1ncc(Sc3ccnnc3Cl)c3nccn13)CC2 = 6.00 to 7.00
• CC1C[C@@H](N)C2(CCN(c3ncc(Sc4cccc(Cl)c4Cl)c4nncn34)CC2)C1 (some centres unmarked) = > 7.00
• N[C@@H]1COCC12CCN(c1ncc(Sc3cccc(Cl)c3Cl)c3nccn13)CC2 = 6.00 to 7.00
• Cc1nc(N)cc(Sc2cnc(N3CCC4(CC3)CO[C@@H](C)[C@H]4N)n3ccnc23)c1Cl = > 7.00
• CC1C[C@@H](N)C2(CCN(c3ncc(Sc4ccnc(N)c4Cl)c4nccn34)CC2)C1 (some centres unmarked) = > 7.00
• C[C@@H]1OCC2(CCN(c3ncc(Sc4cc(N)ncc4Cl)c4nccn34)CC2)[C@@H]1N = 6.00 to 7.00
• N[C@@H]1CCCC12CCN(c1ncc(Sc3cccc(Cl)c3Cl)c3nncn13)CC2 = 6.00 to 7.00
• NCC1CCN(c2ncc(Sc3cccc(Cl)c3Cl)c3nncn23)C1 (centres unmarked) = 5.00 to 6.00
• N[C@@H]1CCCC12CCN(c1ncc(Sc3ccncc3C(F)(F)F)c3nccn13)CC2 = 6.00 to 7.00
• Cc1ncccc1Sc1cnc(N2CCC3(CCC[C@H]3N)CC2)n2ccnc12 = 6.00 to 7.00
• COc1ccccc1Sc1cnc(N2CCC3(CCC[C@H]3N)CC2)n2ccnc12 = 6.00 to 7.00
• N[C@@H]1CCCC12CCN(c1ncc(Sc3ccccc3Cl)c3nncn13)CC2 = 6.00 to 7.00
• C=CC(=O)Nc1cccc(Sc2cnc(N3CCC4(CCC[C@H]4N)CC3)n3ccnc23)c1Cl = 6.00 to 7.00
• Nc1cccc(Sc2cnc(N3CCC4(CCC[C@H]4N)CC3)n3cnnc23)c1Cl = 6.00 to 7.00
• N[C@@H]1CCCC12CCN(c1ncc(Sc3cccnc3Cl)c3ncnn13)CC2 = 5.00 to 6.00
• N[C@@H]1COCC12CCN(c1ncc(Sc3cccc(Cl)c3Cl)c3ncnn13)CC2 = 6.00 to 7.00
• CC1(N)CCN(c2ncc(Sc3ccnc(N)c3Cl)c3nncn23)CC1 = 5.00 to 6.00
• N[C@@H]1CCCC12CCN(c1ncc(Sc3ccncc3Cl)c3ncnn13)CC2 = 5.00 to 6.00
